- test-summary: in vitro
- condition-description: mouse
measured-property: CC50 (µg/mL)
Report the value in µg/mL with no unit label.

Incoming: Data request, read-out CC50, for O=c1c(O)c(-c2ccc(O)c(O)c2)oc2cc(O)cc(O)c12 [Quercetin, quercetin]
Outgoing: 116

---

- test-summary: MTT cell viability and proliferation assay, BHK-21 cells
- Assay type: cell-based, baby hamster
- condition-description: hamster, BHK-21 cells (monolayers)
measured-property: CC50 at 48 h (µg/mL)
Report the value in µg/mL with no unit label.

Incoming: Data request, read-out CC50 at 48 h, for "O=c1c(O)c(-c2ccc(O)c(O)c2)oc2cc(O)cc(O)c12"
Outgoing: 155
